Recorded GI50 by entry
system: NCI-H522; test: NCI tumour cell line growth inhibition, 48 h
Active and inactive are the calls of the source. Rule as the data show it: active = GI50 up to about 1.1 µM and inactive = higher.

| COMPOUND | TARGET OF ASSAY | GI50 |
| --- | --- | --- |
| CCSc1n/c(=C\c2ccco2)c2nnnn12 | NCI-H522 | > 100 µM (inactive) |
| Cc1c(Cl)cccc1NC(=O)C(=O)C1C(=O)CC(C)(C)CC1=O | NCI-H522 | > 100 µM (inactive) |
| COC(=O)c1ccc(OCc2ccc3oc(=O)c(-c4ccccc4)nc3c2)cc1 | NCI-H522 | 33.6 µM (inactive) |
| O=C(O)C1CCCCC1C(=O)Nn1cnnc1 (stereo not drawn) | NCI-H522 | > 100 µM (inactive) |
| CC(=O)Nc1ccc(COC(O)CN2CCCCC2)cc1[N+](=O)[O-] (stereo not drawn) | NCI-H522 | > 100 µM (inactive) |
| COc1ccc(Oc2nc(C#CC(C)(C)O)nc(Oc3ccc(OC)cc3)n2)cc1 | NCI-H522 | 3.2 µM (inactive) |
| COc1c2c(cc3c1OCO3)C13C=CC(OC)CC1N(CC3)C2.[O-][Cl+3]([O-])([O-])O (stereo not drawn) | NCI-H522 | > 100 µM (inactive) |
| Oc1nc2c(c(-c3ccc(F)cc3)n1)COC/C2=C\c1ccc(F)cc1 | NCI-H522 | > 100 µM (inactive) |
